- Test system: Escherichia coli
- Protocol Notes: Antimicrobial activity against Escherichia coli MC4100 harboring pA-acc1 plasmid by agar dilution technique
- Assay type: functional
Measured Endpoint: log10(MIC) (log10 of the value in µg/mL)
In plain terms, each number is the log10 of measured MIC in µg/mL.

# count of solved cases: 4
- Compound: "CO/N=C(\\C(=O)N[C@@H]1C(=O)N2C(C(=O)O)=C(CSc3nc(=O)c(O)nn3C)CS[C@H]12)c1csc(N)n1"
  log10(MIC): 1.20
- Compound: "CO/N=C(\\C(=O)N[C@@H]1C(=O)N2C(C(=O)O)=C(COC(N)=O)CS[C@H]12)c1ccco1"
  log10(MIC): 2.11
- Compound: "C[C@H]1[C@H](NC(=O)/C(=N\\OC(C)(C)C(=O)O)c2csc(N)n2)C(=O)N1S(=O)(=O)O"
  log10(MIC): -0.30
- Compound: "CO[C@@]1(NC(=O)C2SC(=C(C(N)=O)C(=O)O)S2)C(=O)N2C(C(=O)O)=C(CSc3nnnn3C)CS[C@@H]21 (some centres not stated)"
  log10(MIC): 0.00

Let us move to another entry and its log10(MIC).
# input Please report the recorded log10(MIC) for CO[C@@]1(NC(=O)Cc2cccs2)C(=O)N2C(C(=O)O)=C(COC(N)=O)CS[C@@H]21 .
# output 0.60
